- Test system: DU-145
- protocol: Antiproliferative activity against human AR-negative DU-145 cells assessed as cell growth inhibition incubated for 3 days by WST-1 assay
- Assay type: functional, cell-based
- conditions-used: DU-145, 72 h
Give measured IC50 for each item. Keep answers brief.

# batch size: 4; output IC50 per entry
1. CC(C)(C)OC(=O)COCCOCCn1cc(CCOc2ccc(Cl)cc2C(=O)Nc2ccc([N+](=O)[O-])cc2Cl)nn1
2. O=C(O)COCCOCCOc1ccc(Cl)cc1C(=O)Nc1ccc([N+](=O)[O-])cc1Cl
3. Cc1ncsc1-c1ccc(CNC(=O)[C@@H]2C[C@@H](O)CN2C(=O)[C@@H](NC(=O)COCCOCCOc2ccc(Cl)cc2C(=O)Nc2ccc([N+](=O)[O-])cc2Cl)C(C)(C)C)cc1
4. O=C(Nc1ccc([N+](=O)[O-])cc1Cl)c1cc(Cl)ccc1O [NICLOSAMIDE]

Ans.
> 10 µM
> 10 µM
> 10 µM
3.65 µM
